Attribution: patent US11407721B2

# STUDY SYSTEM: interaction between HDM2 and p53 (GST-hMDM2 (1-188) / biotinylated-p53 (1-83)) (Homo sapiens (Human), UniProt Q00987)
# Sequence (Q00987 1-188): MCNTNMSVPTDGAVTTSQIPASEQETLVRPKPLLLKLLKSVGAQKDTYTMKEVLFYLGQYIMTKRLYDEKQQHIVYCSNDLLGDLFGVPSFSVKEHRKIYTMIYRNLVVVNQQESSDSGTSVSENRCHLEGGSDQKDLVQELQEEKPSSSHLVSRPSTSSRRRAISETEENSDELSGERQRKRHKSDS
# ASSAY PROTOCOL: HTRF2 Assay (improved HTRF assay)
# Assay type: binding
# SETTINGS: read-out: HTRF2 IC50
QUANTITY NAME: IC50 (µM)
Output spec: scalar in µM, unitless text.

MOLECULE: O=CC[C@@H]1O[C@@H](c2cccc(Cl)c2)[C@@H](c2ccc(Cl)cc2)N(CC2CC2)C1=O (racemic) [Example 15]
TEST RESULT: 3.32

Identify measured IC50 corresponding to O=C1[C@H](Cc2ccc(F)cc2)O[C@@H](c2ccc(Cl)cc2)[C@@H](c2ccc(Cl)cc2)N1c1ccnc(Cl)c1 (racemic) [Example 58]
5

* * *

# STUDY SYSTEM: interaction between HDM2 and p53 (GST-hMDM2 (1-188) / biotinylated-p53 (1-83)) (Homo sapiens (Human))
# ASSAY PROTOCOL: HTRF2 Assay (improved HTRF assay)
# Type: binding
# SETTINGS: 0.2 nM GST-hMDM2 (1-188), 0.5 nM biotinylated-p53 (1-83), 100 mM KF; read-out: HTRF2 IC50
Entries and their IC50
Number only, in µM; omit the unit.

Here is how some compounds turned out for IC50.
SMILES ENTRY: CN1C(=O)[C@@H](Cc2cccc(C(N)=O)c2)O[C@H](c2ccc(Cl)cc2)[C@@H]1c1ccc(Cl)cc1
SCALE UNIT: µM
IC50: 7.39
--
SMILES ENTRY: O=C1CO[C@@H](c2ccc(Cl)cc2)[C@@H](c2ccc(Cl)cc2)N1c1cccnc1
SCALE UNIT: µM
IC50: 29.6
--
SMILES ENTRY: C[C@@H]1O[C@@H](c2ccc(Br)cc2)[C@@H](c2ccc(Br)cc2)N(C)C1=O
SCALE UNIT: µM
IC50: 22.7
--
SMILES ENTRY: CN1C(=O)[C@@H](c2ccccc2)O[C@H](c2ccc(Br)cc2)[C@@H]1c1ccc(Br)cc1
SCALE UNIT: µM
IC50: 20

Query IC50 for CN1C(=O)[C@@H](Cc2ccc(C(N)=O)cc2)O[C@H](c2ccc(Cl)cc2)[C@@H]1c1ccc(Cl)cc1
3.66

Give the measured IC50 for O=C1CO[C@@H](c2ccc(Cl)cc2)[C@@H](c2ccc(Cl)cc2)N1c1cc(Cl)nc(Cl)c1
63

Read off the recorded IC50 for CCC[C@H](C(=O)O)N1C(=O)[C@H](Cc2cccc(C#N)c2)O[C@@H](c2ccc(Cl)cc2)[C@H]1c1ccc(Cl)cc1
0.561

* * *

# STUDY SYSTEM: interaction between HDM2 and p53 (GST-hMDM2 (1-188) / biotinylated-p53 (1-83)) (Homo sapiens (Human), UniProt Q00987)
# ASSAY PROTOCOL: HTRF2 Assay (improved HTRF assay)
# Type: binding
Let's look at some compounds and their measured IC50.

Example compounds with recorded IC50:
SMILES ENTRY: CCC[C@H](C(=O)NCC(=O)O)N1C(=O)[C@H](Cc2ccc(C#N)c(F)c2)O[C@@H](c2ccc(Cl)cc2)[C@H]1c1ccc(Cl)cc1
IC50: 517 nM
//
SMILES ENTRY: CCC[C@H](C(=O)O)N1C(=O)[C@H](Cc2ccc(C#N)c(F)c2)O[C@@H](c2ccc(Cl)cc2)[C@H]1c1ccc(Cl)cc1
IC50: 539 nM
//
SMILES ENTRY: CCC[C@H](C(=O)O)N1C(=O)[C@H](Cc2ccc(C#N)cc2)O[C@@H](c2ccc(Cl)cc2)[C@H]1c1ccc(Cl)cc1
IC50: 393 nM

Lab note: next compound to report on.
Return reported IC50. Input compound: CCCC[C@H](C(=O)O)N1C(=O)CO[C@@H](c2ccc(Cl)cc2)[C@H]1c1ccc(Cl)cc1
23400 nM

* * *

# STUDY SYSTEM: interaction between HDM2 and p53 (GST-hMDM2 / biotinylated-p53) (Homo sapiens (Human), UniProt Q00987)
# Sequence (Q00987 1-188): as above
# ASSAY PROTOCOL: biochemical
IC50 vs 20 µM: less than gives YES; not less than gives NO.

SMILES ENTRY: O=C1CN(Cc2ccccc2)[C@H](c2ccc(Br)cc2)[C@H](c2ccc(Br)cc2)N1
ASSIGNED LABEL: NO
--
SMILES ENTRY: O=C1CO[C@@H](c2ccc(Cl)cc2)[C@@H](c2ccc(Cl)cc2)N1c1cccnc1
ASSIGNED LABEL: NO
--
SMILES ENTRY: O=C1CO[C@@H](c2cccc(Cl)c2)[C@@H](c2ccc(Cl)cc2)N1C1CCCC1
ASSIGNED LABEL: YES
--
SMILES ENTRY: CCC[C@H](C(=O)O)N1C(=O)[C@H](Cc2ccc(C#N)c(F)c2)O[C@@H](c2ccc(Cl)cc2)[C@H]1c1ccc(Cl)cc1
ASSIGNED LABEL: YES

Turning now to a further record.
# TODO verify IC50 < 20 µM strictly for this compound: O=C1CO[C@@H](c2ccc(Br)cc2)[C@@H](c2ccc(Br)cc2)N1C1CC1
NO

* * *

# STUDY SYSTEM: interaction between HDM2 and p53 (GST-hMDM2 (1-188) / biotinylated-p53 (1-83)) (Homo sapiens (Human))
# ASSAY PROTOCOL: HTRF2 Assay (improved HTRF assay)
# Type: binding
# SETTINGS: 0.2 nM GST-hMDM2 (1-188), 0.5 nM biotinylated-p53 (1-83), 100 mM KF; read-out: HTRF2 IC50
Define the label as y when IC50 is strictly less than 10 µM and as n in all remaining cases.

Below are worked cases with known answers.
COMPOUND: CS(=O)(=O)OCC[C@H]1O[C@H](c2cccc(Cl)c2)[C@H](c2ccc(Cl)cc2)N(CC2CC2)C1=O
ASSIGNED LABEL: y

COMPOUND: CCC[C@H](CCC(=O)O)N1C(=O)CO[C@@H](c2ccc(Cl)cc2)[C@H]1c1ccc(Cl)cc1
ASSIGNED LABEL: n

COMPOUND: CCC[C@H](C(=O)O)N1C(=O)[C@H](Cc2ccc(F)cc2S(C)(=O)=O)O[C@@H](c2ccc(Cl)cc2)[C@H]1c1ccc(Cl)cc1 [Example 52]
ASSIGNED LABEL: y

COMPOUND: CCC[C@H](C(=O)OCC)N1C(=O)[C@H](CCCN2CCOCC2)O[C@@H](c2ccc(Cl)cc2)[C@H]1c1ccc(Cl)cc1
ASSIGNED LABEL: y

COMPOUND: CCC[C@H](C(=O)O)N1C(=O)[C@H](CCCn2ccnc2)O[C@@H](c2ccc(Cl)cc2)[C@H]1c1ccc(Cl)cc1
ASSIGNED LABEL: y

Quick check: IC50 of O=C1CO[C@@H](c2ccc(Cl)cc2)[C@@H](c2ccc(Cl)cc2)N1c1ccncc1 under 10 µM?
n

Answer whether the compound O=C1CO[C@@H](c2ccc(Cl)cc2)[C@@H](c2ccc(Cl)cc2)N1c1ccccc1 has IC50 strictly less than 10 µM
n

* * *

Listed below: pIC50 values for each entry.
# STUDY SYSTEM: interaction between HDM2 and p53 (GST-hMDM2 / biotinylated-p53) (Homo sapiens (Human))
# ASSAY PROTOCOL: biochemical
Note: pIC50 values are expressed as the negative base-10 logarithm of concentration in M.

COMPOUND: CN1C(=O)/C(=C/c2cccnc2)O[C@H](c2ccc(Cl)cc2)C1c1ccc(Cl)cc1 (mixture of isomers)
STUDY SYSTEM: interaction between HDM2 and p53 (GST-hMDM2 / biotinylated-p53) (Homo sapiens (Human))
TEST RESULT: 4.98
//
COMPOUND: O=C1[C@H](C[C@H](O)CO)O[C@@H](c2cccc(Cl)c2)[C@@H](c2ccc(Cl)cc2)N1CC1CC1 (racemic)
STUDY SYSTEM: interaction between HDM2 and p53 (GST-hMDM2 / biotinylated-p53) (Homo sapiens (Human))
TEST RESULT: 5.33
//
COMPOUND: C[C@H](C(=O)O)N1C(=O)CO[C@H](c2ccc(Cl)cc2)[C@@H]1c1ccc(Cl)cc1
STUDY SYSTEM: interaction between HDM2 and p53 (GST-hMDM2 / biotinylated-p53) (Homo sapiens (Human))
TEST RESULT: 4.21

State pIC50 on interaction between HDM2 and p53 (GST-hMDM2 / biotinylated-p53) (Homo sapiens (Human)). Entry: CCC[C@H](C(=O)O)N1C(=O)[C@H](Cc2ccc(C#N)cc2)O[C@@H](c2ccc(Cl)cc2)[C@H]1c1ccc(Cl)cc1
6.53

* * *

In this section we review reported log10(IC50) values for a set of compounds.
# STUDY SYSTEM: interaction between HDM2 and p53 (GST-hMDM2 / biotinylated-p53) (Homo sapiens (Human), UniProt Q00987)
# ASSAY PROTOCOL: biochemical
Please interpret these as log10 of IC50 where IC50 is in µM.

Take a look at these entries with their results.
COMPOUND: CN1C(=O)CN(Cc2ccccc2)[C@H](c2ccc(Br)cc2)[C@@H]1c1ccc(Br)cc1
log10(IC50): 1.86

COMPOUND: C[C@@H]1O[C@@H](c2ccc(Br)cc2)[C@@H](c2ccc(Br)cc2)N(C)C1=O
log10(IC50): 1.37

COMPOUND: C=CC[C@H]1O[C@H](c2ccc(Br)cc2)[C@H](c2ccc(Br)cc2)N(C)C1=O
log10(IC50): 1.37

COMPOUND: CCC[C@H](CN)N1C(=O)CO[C@@H](c2ccc(Cl)cc2)[C@H]1c1ccc(Cl)cc1
log10(IC50): 0.84

Entry CCC[C@H](C(N)=O)N1C(=O)CO[C@@H](c2ccc(Cl)cc2)[C@H]1c1ccc(Cl)cc1 needs its log10(IC50) filled in; supply it.
0.50

Given CCN1C(=O)CO[C@H](c2ccc(Br)cc2)[C@@H]1c1ccc(Br)cc1 , respond with its log10(IC50).
1.63

Give recorded log10(IC50). CN1C(=O)[C@@H](CC(N)=O)O[C@H](c2ccc(Cl)cc2)[C@@H]1c1ccc(Cl)cc1
1.64

Specify reported log10(IC50) for the compound shown: O=C1CO[C@@H](c2ccc(Cl)cc2)[C@@H](c2ccc(Cl)cc2)N1c1ccncc1
1.38

Give recorded log10(IC50). CCCC[C@H](C(=O)O)N1C(=O)CO[C@H](c2ccc(Cl)cc2)[C@@H]1c1ccc(Cl)cc1
1.52

Look up log10(IC50) of CC(C)N1C(=O)CO[C@H](c2ccc(Br)cc2)[C@@H]1c1ccc(Br)cc1 and report it.
1.39

Entry CCC[C@H](c1nnn[nH]1)N1C(=O)[C@H](Cc2ccc(I)cc2)O[C@@H](c2ccc(Cl)cc2)[C@H]1c1ccc(Cl)cc1 (racemic) needs its log10(IC50) filled in; supply it.
-0.29
